Hello, the source for this data is patent EP1377579B1, in case you need it.

Biological target: cdk1/cyclin B (Homo sapiens, UniProt P06493)
Sequence (P06493 whole entry): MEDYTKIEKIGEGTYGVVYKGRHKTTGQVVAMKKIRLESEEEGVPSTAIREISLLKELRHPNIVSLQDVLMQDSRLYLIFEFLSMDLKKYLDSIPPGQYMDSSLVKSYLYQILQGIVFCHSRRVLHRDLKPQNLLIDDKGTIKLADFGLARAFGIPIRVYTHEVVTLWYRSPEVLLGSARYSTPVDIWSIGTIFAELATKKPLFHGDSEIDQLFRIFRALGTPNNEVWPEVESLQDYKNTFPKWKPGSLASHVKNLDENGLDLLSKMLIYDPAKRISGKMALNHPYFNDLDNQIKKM
Sequence (P14635 whole entry partner): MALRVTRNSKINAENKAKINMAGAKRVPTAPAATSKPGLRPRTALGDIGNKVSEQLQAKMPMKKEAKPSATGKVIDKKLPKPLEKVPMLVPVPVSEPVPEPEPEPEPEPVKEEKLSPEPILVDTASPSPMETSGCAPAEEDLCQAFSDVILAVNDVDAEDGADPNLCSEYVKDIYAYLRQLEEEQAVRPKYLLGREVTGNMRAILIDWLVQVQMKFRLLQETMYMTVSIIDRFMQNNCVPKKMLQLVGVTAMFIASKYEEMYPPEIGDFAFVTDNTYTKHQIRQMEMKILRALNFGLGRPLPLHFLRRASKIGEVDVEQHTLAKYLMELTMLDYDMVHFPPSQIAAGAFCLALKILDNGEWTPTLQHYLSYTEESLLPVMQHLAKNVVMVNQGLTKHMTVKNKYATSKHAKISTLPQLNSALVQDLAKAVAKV
Test: Cyclin-dependent kinase assay, cdk1/cyclin B
Settings: CDK1 IC50, nM, Histone H1, 10 µM ATP
Structures can show the parent of a compound that is named as a salt.
Parameter: IC50. Scope: all listed entries.
Enter your answer as a number in nM; do not include the unit.

Sample records with IC50:
| COMPOUND | IC50, nM |
| --- | --- |
| N[C@H]1CC[C@H](Nc2nc(NC3CCN(S(=O)(=O)c4cccc([N+](=O)[O-])c4)CC3)c3ncn(C4CCCC4)c3n2)CC1 [compound 127, dihydrochloride] | 14 |
| N[C@H]1CC[C@H](Nc2nc(NC3CCN(C(=O)c4ccccc4Br)CC3)c3ncn(C4CCCC4)c3n2)CC1 [compound 13] | 197 |
| Cc1ccc(NC(=O)N2CCC(Nc3nc(N[C@H]4CC[C@H](N)CC4)nc4c3ncn4C3CCCC3)CC2)cc1 [compound 183, dihydrochloride] | 17 |
| N[C@H]1CC[C@H](Nc2nc(NC3CCN(C(=O)Nc4ccc(F)cc4C(F)(F)F)CC3)c3ncn(C4CCCC4)c3n2)CC1 [compound 202, dihydrochloride] | 137 |
| N[C@H]1CC[C@H](Nc2nc(NC3CCN(C(=O)Nc4ccccc4F)CC3)c3ncn(C4CCCC4)c3n2)CC1 [compound 207, dihydrochloride] | 50 |
| CC(C)(C)NC(=O)N1CCC(Nc2nc(N[C@H]3CC[C@H](N)CC3)nc3c2ncn3C2CCCC2)CC1 [compound 192, dihydrochloride] | 1000 |

## Task I'd like to know its IC50. The compound in question is N[C@H]1CC[C@H](Nc2nc(NC3CCN(C(=O)c4cccc([N+](=O)[O-])c4)CC3)c3ncn(C4CCCC4)c3n2)CC1 [compound 26]
## Result 31

## Task Repeat for the following compound: N[C@H]1CC[C@H](Nc2nc(NC3CCN(C(=O)c4ccc(F)cc4)CC3)c3ncn(C4CCCC4)c3n2)CC1 [compound 1, dihydrochloride]
## Result 64

## Task Continue with N[C@H]1CC[C@H](Nc2nc(NC3CCN(S(=O)(=O)c4cccc5ccccc45)CC3)c3ncn(C4CCCC4)c3n2)CC1 [compound 123, dihydrochloride]
## Result 62

## Task // repeat for N[C@H]1CC[C@H](Nc2nc(NC3CCN(C(=O)Nc4cc(Cl)cc(Cl)c4)CC3)c3ncn(C4CCCC4)c3n2)CC1 [compound 182, dihydrochloride] and report
## Result 32

## Task Same lookup for N[C@H]1CC[C@H](Nc2nc(NC3CCN(C(=O)CCC4CCCC4)CC3)c3ncn(C4CCCC4)c3n2)CC1 [compound 36, dihydrochloride] , please.
## Result 45

## Task Next: N[C@H]1CC[C@H](Nc2nc(NC3CCN(C(=O)Cc4ccc(F)cc4)CC3)c3ncn(C4CCCC4)c3n2)CC1 [compound 48, dihydrochloride]
## Result 48

## Task Again, but for CCS(=O)(=O)N1CCC(Nc2nc(N[C@H]3CC[C@H](N)CC3)nc3c2ncn3C2CCCC2)CC1 [compound 139, dihydrochloride]
## Result 23

## Task Moving on to N[C@H]1CC[C@H](Nc2nc(NC3CCN(C(=O)Nc4cccc(F)c4)CC3)c3ncn(C4CCCC4)c3n2)CC1 [compound 152, dihydrochloride]
## Result 17

====

Experiment: in vivo
Conditions: male, Hsd:ICR (CD-1), mouse, plasma, intravenous, 3 mg/kg
# label = yes (1) if concentration at 6 h < 4 ng/mL else no (0)

Some entries whose results are on file:
| COMPOUND | QUALITATIVE LABEL |
| --- | --- |
| Cl.Cl.N[C@H]1CC[C@H](Nc2nc(NC3CCN(C(=O)Oc4ccc(F)cc4)CC3)c3ncn(C4CCCC4)c3n2)CC1 [compound 87, dihydrochloride] | no (0) |
| Cl.Cl.N[C@H]1CC[C@H](Nc2nc(NC3CCN(C(=O)Oc4ccc(Cl)cc4)CC3)c3ncn(C4CCCC4)c3n2)CC1 [compound 88, dihydrochloride] | no (0) |
| Cc1ccc(OC(=O)N2CCC(Nc3nc(N[C@H]4CC[C@H](N)CC4)nc4c3ncn4C3CCCC3)CC2)cc1.Cl.Cl [compound 82, dihydrochloride] | no (0) |
| Cl.Cl.N[C@H]1CC[C@H](Nc2nc(NC3CCN(C(=O)Oc4ccc([N+](=O)[O-])cc4)CC3)c3ncn(C4CCCC4)c3n2)CC1 [compound 89, dihydrochloride] | yes (1) |
| Cl.Cl.N[C@H]1CC[C@H](Nc2nc(NC3CCN(S(=O)(=O)c4cccc(C(F)(F)F)c4)CC3)c3ncn(C4CCCC4)c3n2)CC1 [compound 112, dihydrochloride] | no (0) |

Then there is this compound:
## Task Just wondering, is concentration at 6 h of Cl.Cl.N[C@H]1CC[C@H](Nc2nc(NC3CCN(S(=O)(=O)c4ccc(F)cc4)CC3)c3ncn(C4CCCC4)c3n2)CC1 [compound 106, dihydrochloride] below 4 ng/mL?
## Result no (0)

====

Experiment: in vivo
Details: male, Hsd:ICR (CD-1), mouse, plasma, iv, 18 mg/kg
// NOT MET strictly below 6 ng/mL in concentration at 8 h; MET otherwise

| COMPOUND | QUALITATIVE LABEL |
| --- | --- |
| COc1ccc(OC(=O)N2CCC(Nc3nc(N[C@H]4CC[C@H](N)CC4)nc4c3ncn4C3CCCC3)CC2)cc1.Cl.Cl [compound 84, dihydrochloride] | NOT MET |

## Task Record Cl.Cl.N[C@H]1CC[C@H](Nc2nc(NC3CCN(C(=O)Oc4ccc(Br)cc4)CC3)c3ncn(C4CCCC4)c3n2)CC1 [compound 81, dihydrochloride] ; criterion: concentration at 8 h no lower than 6 ng/mL. Met?
## Result NOT MET

## Task Try the compound Cl.Cl.N#Cc1ccc(S(=O)(=O)N2CCC(Nc3nc(N[C@H]4CC[C@H](N)CC4)nc4c3ncn4C3CCCC3)CC2)cc1 [compound 109, dihydrochloride]
## Result NOT MET

## Task Can you handle Cl.Cl.N[C@H]1CC[C@H](Nc2nc(NC3CCN(C(=O)Oc4ccccc4)CC3)c3ncn(C4CCCC4)c3n2)CC1 [compound 85, dihydrochloride] next?
## Result NOT MET

## Task Try COC(=O)c1ccc(OC(=O)N2CCC(Nc3nc(N[C@H]4CC[C@H](N)CC4)nc4c3ncn4C3CCCC3)CC2)cc1.Cl.Cl [compound 83, dihydrochloride] next.
## Result MET

## Task Moving on to the next compound: Cl.Cl.N[C@H]1CC[C@H](Nc2nc(NC3CCN(C(=O)c4cccc(C(F)(F)F)c4F)CC3)c3ncn(C4CCCC4)c3n2)CC1 [compound 12, dihydrochloride]
## Result MET

====

Molecular target: cdk1/cyclin B (Homo sapiens, UniProt P06493)
Experiment: Cyclin-dependent kinase assay, cdk1/cyclin B
Conditions: CDK1 IC50, nM, Histone H1, 10 µM ATP
Structures can show the parent of a compound that is named as a salt.
PROPERTY MEASURED: IC50 (nM)
Field: numeric (nM). Do not append units.

Example cases with answers are listed next.
| COMPOUND | IC50 / nM |
| --- | --- |
| N[C@H]1CC[C@H](Nc2nc(NC3CCN(C(=O)COCc4ccccc4)CC3)c3ncn(C4CCCC4)c3n2)CC1 [compound 37, dihydrochloride] | 15 |
| N[C@H]1CC[C@H](Nc2nc(NC3CCN(S(=O)(=O)c4ccc(Br)cc4)CC3)c3ncn(C4CCCC4)c3n2)CC1 [compound 114, dihydrochloride] | 5 |
| N[C@H]1CC[C@H](Nc2nc(NC3CCN(C(=O)Nc4ccc(Cl)c(Cl)c4)CC3)c3ncn(C4CCCC4)c3n2)CC1 [compound 209, dihydrochloride] | 13 |
| N[C@H]1CC[C@H](Nc2nc(NC3CCN(S(=O)(=O)c4ccccc4)CC3)c3ncn(C4CCCC4)c3n2)CC1 [compound 105, dihydrochloride] | 7 |
| N[C@H]1CC[C@H](Nc2nc(NC3CCN(C(=O)c4ccc(C(F)(F)F)cc4)CC3)c3ncn(C4CCCC4)c3n2)CC1 [compound 2, dihydrochloride] | 48 |
| N[C@H]1CC[C@H](Nc2nc(NC3CCN(C(=O)Nc4c(F)cccc4C(F)(F)F)CC3)c3ncn(C4CCCC4)c3n2)CC1 [compound 201, dihydrochloride] | 170 |
| N[C@H]1CC[C@H](Nc2nc(NC3CCN(C(=O)NC45CC6CC(CC(C6)C4)C5)CC3)c3ncn(C4CCCC4)c3n2)CC1 (relative stereo) [compound 181, dihydrochloride] | 67 |
| COc1ccc(S(=O)(=O)N2CCC(Nc3nc(N[C@H]4CC[C@H](N)CC4)nc4c3ncn4C3CCCC3)CC2)cc1OC [compound 137, dihydrochloride] | 26 |

## Task Any idea what IC50 was measured for CCCCCc1ccc(C(=O)N2CCC(Nc3nc(N[C@H]4CC[C@H](N)CC4)nc4c3ncn4C3CCCC3)CC2)cc1 ?
## Result 182

## Task Now consider N[C@H]1CC[C@H](Nc2nc(NC3CCN(S(=O)(=O)c4ccc(C(=O)O)cc4)CC3)c3ncn(C4CCCC4)c3n2)CC1 [compound 126, dihydrochloride] and answer again.
## Result 20

## Task Then CCOC(=O)CC(=O)N1CCC(Nc2nc(N[C@H]3CC[C@H](N)CC3)nc3c2ncn3C2CCCC2)CC1 [compound 29, dihydrochloride] ?
## Result 27

## Task Continue with N[C@H]1CC[C@H](Nc2nc(NC3CCN(S(=O)(=O)c4ccccc4[N+](=O)[O-])CC3)c3ncn(C4CCCC4)c3n2)CC1 [compound 143, dihydrochloride]
## Result 7.5
